pIC50: −log10 of the molar value.
Ok so here's the combined literature set: pIC50 for Coagulation factor XI (Homo sapiens, UniProt P03951).
quantityKind: pIC50

compound	testedSystem	quantityKind	qualifier	assayValue
Cc1ncc(-c2c(OC(F)F)ccc(Cl)c2F)nc1C(=O)Nc1cnn(C(C)c2cnc(N3C[C@H]4C[C@H]4C3=O)c(C)n2)c1 (single isomer, unassigned)	Coagulation factor XI (Homo sapiens, UniProt P03951)	pIC50	=	6.02
Cc1nc(N2CCC2)ncc1Cn1cc(NC(=O)c2cncc(-c3c(C(F)F)ccc(Cl)c3F)n2)cn1	Coagulation factor XI (Homo sapiens, UniProt P03951)	pIC50	=	6.34
CC[C@@H](NC(=O)N1C(=O)[C@H](Cc2ccnc(N)c2)[C@H]1C(=O)N(C)c1ccnc(C)c1)c1cccc(C)c1	Coagulation factor XI (Homo sapiens, UniProt P03951)	pIC50	>	8.00
Cc1nc(N2C[C@H]3C[C@H]3C2=O)ncc1C(C)n1cc(NC(=O)c2nc(-c3c(C(F)F)ccc(Cl)c3F)cc(=O)n2C)cn1 (single isomer, unassigned)	Coagulation factor XI (Homo sapiens, UniProt P03951)	pIC50	=	6.55
CCc1ccccc1-n1ncc(C(=O)N2CCC[C@@]3(C2)OC(=O)Nc2ccc(Cl)c(F)c23)c1N	Coagulation factor XI (Homo sapiens, UniProt P03951)	pIC50	=	6.49

---

Recorded pIC50 for compounds tested on Coagulation factor XI (Homo sapiens), drawn from a number of studies.
pIC50: −log10 of the molar value.
quantityKind: pIC50

compound	testedSystem	qualifier	assayValue
COc1cn(C(CCOC(F)(F)F)C(=O)Nc2ccc(C(N)=O)c(F)c2)c(=O)cc1-c1cc(Cl)ccc1OCC(F)(F)F (racemic)	Coagulation factor XI (Homo sapiens)	=	7.54
CCC(c1ccc2cnccc2c1)n1cc(C(=O)N2CCC[C@@]3(C2)OC(=O)Nc2ccc(Cl)c(F)c23)cn1 (single isomer, unassigned)	Coagulation factor XI (Homo sapiens)	=	5.60
O=C(O)c1ccc(NC(=O)C(CC2CC2CF)c2ccc(-c3c(C(F)F)ccc(Cl)c3F)c[n+]2[O-])cc1 (single isomer, unassigned)	Coagulation factor XI (Homo sapiens)	=	9.40
CC(c1cnc(N2CC[C@H]2CN2CC(O)(C(C)C)C2)nc1)n1cc(NC(=O)c2cncc(-c3c(C(F)F)ccc(Cl)c3F)n2)cn1 (stereo partly shown)	Coagulation factor XI (Homo sapiens)	=	5.05
Nc1c(C(=O)N2CCC[C@@]3(C2)OC(=O)Nc2ccc(Cl)c(F)c23)cnn1C1Cc2ccccc2C1	Coagulation factor XI (Homo sapiens)	=	6.35
COc1cn(C(CCOC(C)C)C(=O)Nc2ccc3nn(C)cc3c2)c(=O)cc1-c1cc(Cl)ccc1OCC(F)(F)F (racemic)	Coagulation factor XI (Homo sapiens)	=	7.80
CCC[C@@H](NC(=O)N1C(=O)[C@H](Cc2ccnc(N)c2)[C@H]1C(=O)N(C)c1ccccc1)C1CCCCC1	Coagulation factor XI (Homo sapiens)	>	8.00
O=C(O)c1ccc(NC(=O)[C@@H]2CCc3cc(-c4c(F)ccc(Cl)c4F)c[n+]([O-])c32)cc1	Coagulation factor XI (Homo sapiens)	=	5.63
[2H]C(C)(c1cnc(N2CCC2)nc1)n1cc(NC(=O)c2cncc(-c3c(C(F)F)ccc(Cl)c3F)n2)cn1 (single isomer, unassigned)	Coagulation factor XI (Homo sapiens)	=	5.93
COC1(CC(c2ccccc2)c2c[nH]c(C(=O)N3CCC[C@@]4(C3)OC(=O)Nc3ccc(Cl)c(F)c34)n2)CC1 (single isomer, unassigned)	Coagulation factor XI (Homo sapiens)	=	6.49
COC(=O)Nc1ccc(-c2c[nH]c(C(Cc3ccc(F)cc3)c3ccc(-c4cc(Cl)ccc4OC(F)F)c[n+]3[O-])n2)cc1 (racemic)	Coagulation factor XI (Homo sapiens)	=	7.47

---

Assembled from different publications: log10(IC50) for Coagulation factor XI (Homo sapiens, UniProt P03951).
quantityKind: log10(IC50) (log10 of the value in nM)

molecule	testedSystem	log10(IC50)
Cc1cc(C(C)n2cc(NC(=O)c3cncc(-c4c(C(F)F)ccc(Cl)c4F)n3)cn2)cnc1N1C[C@H]2C[C@H]2C1=O (single isomer, unassigned)	Coagulation factor XI (Homo sapiens, UniProt P03951)	3.21
Cc1cc(N2C[C@H]3C[C@H]3C2=O)ccc1C(C)n1cc(NC(=O)c2cncc(-c3c(C(F)F)ccc(Cl)c3F)n2)cn1 (single isomer, unassigned)	Coagulation factor XI (Homo sapiens, UniProt P03951)	3.46
Cc1cc(NC(=O)C(CC2CC2)c2ccc(-c3c(C(F)F)ccc(Cl)c3F)c[n+]2[O-])ccc1C(=O)O (single isomer, unassigned)	Coagulation factor XI (Homo sapiens, UniProt P03951)	1.00
CC1(C)C[C@@H](C(=O)Nc2ccc3nccnc3c2)N2C(=O)C=C(c3c(-n4cnnn4)ccc(Cl)c3F)CC21 (single isomer, unassigned)	Coagulation factor XI (Homo sapiens, UniProt P03951)	1.12
O=C(O)c1ccc(NC(=O)C(CC2CCCC2)c2ccc(-c3c(OC(F)F)ccc(Cl)c3F)c[n+]2[O-])cc1 (single isomer, unassigned)	Coagulation factor XI (Homo sapiens, UniProt P03951)	-0.35
COC(=O)Nc1ccc(-c2cnc(C(CC3CC3)c3ccc(-c4cc(Cl)ccc4-n4cnnn4)c[n+]3[O-])[nH]2)c(Cl)c1 (single isomer, unassigned)	Coagulation factor XI (Homo sapiens, UniProt P03951)	-0.24
CC(c1cnc(N2CC[C@H]2CN2C[C@@H](O)[C@H](F)C2)nc1)n1cc(NC(=O)c2cncc(-c3c(C(F)F)ccc(Cl)c3F)n2)cn1 (stereo partly drawn)	Coagulation factor XI (Homo sapiens, UniProt P03951)	3.96
CNC(=O)c1ccc(NC(=O)C(CC2COCCO2)n2cc(OC)c(-c3cc(Cl)ccc3OCCF)cc2=O)cn1 (stereo not drawn)	Coagulation factor XI (Homo sapiens, UniProt P03951)	0.95
COc1ccccc1-c1cc(N)n(CC(=O)N2CC[C@@]3(C2)OC(=O)Nc2ccc(Cl)c(F)c23)n1	Coagulation factor XI (Homo sapiens, UniProt P03951)	2.70
CCC(C(=O)Nc1ccc(-c2noc(=O)[nH]2)cc1)n1cc2c(cc1=O)-c1cc(Cl)ccc1CC1(CC1)NC2=O (stereo not drawn)	Coagulation factor XI (Homo sapiens, UniProt P03951)	1.20

---

A compilation of log10(IC50) values for UniProt P03951 from the published literature.
quantityKind: log10(IC50) (log10 of the value in nM)

molecule	quantityKind	assayValue
Cc1cc(C(=O)O)ccc1NC(=O)C(CC1CC1)c1ccc(-c2cc(Cl)ccc2-n2cnnn2)c[n+]1[O-] (single isomer, unassigned)	log10(IC50)	1.18
CCCC(C(=O)Nc1ccc2nccnc2c1)n1cc(OC)c(-c2cc(Cl)ccc2OCC(F)(F)F)cc1=O (racemic)	log10(IC50)	1.56
Cc1ncccc1-n1ncc(C(=O)N2CCC[C@@]3(C2)OC(=O)Nc2ccc(Cl)c(F)c23)c1N	log10(IC50)	3.24
CCC(c1ccc(F)cc1)c1c[nH]c(C(=O)N2CCC[C@@]3(C2)OC(=O)Nc2ccc(Cl)c(F)c23)n1 (single isomer, unassigned)	log10(IC50)	3.00
O=C(Nc1cnn(Cc2cnc(N3CC4CC4C3)nc2)c1)c1cncc(-c2c(C(F)F)ccc(Cl)c2F)n1 (stereo not drawn)	log10(IC50)	3.30
Cc1cc(C(C)n2cc(NC(=O)c3cncc(-c4c(OC(F)F)ccc(Cl)c4F)n3)cn2)nnc1N1C[C@H]2C[C@H]2C1=O (single isomer, unassigned)	log10(IC50)	2.67
O=C(O)c1ccc(NC(=O)C(CC2CC2C(F)(F)F)c2ccc(-c3c(OC(F)F)ccc(Cl)c3F)c[n+]2[O-])cc1 (single isomer, unassigned)	log10(IC50)	0.51
CO[C@H](C[C@@H](C(=O)Nc1ccc(C(N)=O)cc1)n1cc2c(cc1=O)-c1cc(Cl)ccc1C[C@@H](C)OC2)C1CC1 (single isomer, unassigned)	log10(IC50)	0.59
COC(=O)Nc1ccc(-c2cnc(C(CC3CC3)c3ccc(-c4cc(Cl)ccc4-n4cc(C(F)F)nn4)c[n+]3[O-])[nH]2)cc1 (racemic)	log10(IC50)	1.04
C[C@@H](O)[C@H](c1ccccc1)n1cc(C(=O)N2CCC[C@@]3(C2)OC(=O)Nc2ccc(Cl)c(F)c23)cn1	log10(IC50)	3.16
COC(=O)Nc1ccc(-c2[nH]c(C(CC3CC3)c3ccc(-c4cc(Cl)ccc4-n4cnnn4)c[n+]3[O-])nc2C)cc1 (single isomer, unassigned)	log10(IC50)	0.18
[2H]C1([2H])C2CC2C(=O)N1c1ncc([C@H](C)n2cc(NC(=O)c3nc(-c4c(C(F)F)ccc(Cl)c4F)cnc3C)cn2)c(C)n1 (single isomer, unassigned)	log10(IC50)	3.26

---

Listing of log10 IC50 toward Coagulation factor XI (Homo sapiens, UniProt P03951), each taken from a published source.
quantityKind: log10 IC50 (log10 of the value in nM)

molecule	testedSystem	assayValue
COc1ccc(-c2cc(N)n(CC(=O)N3CC[C@@]4(C3)OC(=O)Nc3ccc(Cl)c(F)c34)n2)cc1	Coagulation factor XI (Homo sapiens, UniProt P03951)	2.96
CC1C[C@@H](C(=O)Nc2ccc3n[nH]cc3c2)N2C(=O)C=C(c3c(-n4cnnn4)ccc(Cl)c3F)CC12 (mixture of isomers)	Coagulation factor XI (Homo sapiens, UniProt P03951)	1.29
C[C@H](c1cnc(N2CCC2)nc1)n1cc(NC(=O)c2cncc(-c3c(C(F)(F)F)ccc(Cl)c3F)n2)cn1 (single isomer, unassigned)	Coagulation factor XI (Homo sapiens, UniProt P03951)	3.48
COc1ncc(-c2c(C(F)F)ccc(Cl)c2F)nc1C(=O)Nc1cnn(Cc2cnc(N3CCC3)nc2)c1	Coagulation factor XI (Homo sapiens, UniProt P03951)	2.96
CC1CC1C[C@@H](C(=O)Nc1ccc(C(=O)O)cc1)c1ccc(-c2c(C(F)F)ccc(Cl)c2F)c[n+]1[O-] (single isomer, unassigned)	Coagulation factor XI (Homo sapiens, UniProt P03951)	-0.72
